# assay-text: Half life in water solution at 37 degC under dark condition
# Assay type: physicochemical

{"compound": "O=C(c1cc(Cl)c(Cl)[nH]1)c1c(O)cccc1O [PYOLUTEORIN]", "half-life / days": 26.5}
